Experiment: Effect of Ca+2 ions on hydrogel formation
Format: physicochemical
Set-up: key: Hydrogel formation (✓); * partial formation of hydrogel over hours
Conditions: Ca+2 final concentration 27 mM; peptide final concentration 1.34% weight
Method: With the addition of Ca^+2 ions to the solution of the peptide the system may form a hydrogel. These hydrogels are obtained at peptide concentrations smaller and at pH values higher than those without the ions. […] It is possible that the Ca^+2 may also induce cross linking between strands in a mechanism similar to that of alginate hydrogel formation. The concentration of Ca^+2 ions in the hydrogel are a few times larger than in the body serum (2.5 mM). […]
Ends that are not written are not given here.
observable: Hydrogel formation upon the addition of CaCl2 sol.

# query sequence, result
data = [
    ("PDFDFDFDFDFDP [PFD-13, PD(FD)5P]", "✓"),
    ("PEFEFEFEFEFEP [PFE-13, PE(FE)5P]", "✓"),
    ("PELELELELELEP [PLE-13, PE(LE)5P]", "✓"),
    ("PDLDLDLDLDLDP [PLD-13, PD(LD)5P]", "*"),
]

###

Test: Effect of Ca+2 ions on hydrogel formation
Type: physicochemical
Design: key: Hydrogel formation (✓); * partial formation of hydrogel over hours
Conditions: Ca+2 final concentration 33 mM; peptide final concentration 1.34% weight
Ends that are not written are not given here.
observable: Hydrogel formation upon the addition of CaCl2 sol.

# query sequence, result
measured = [
    ("PELELELELELEP [PLE-13, PE(LE)5P]", "✓"),
    ("PDLDLDLDLDLDP [PLD-13, PD(LD)5P]", "*"),
    ("PEFEFEFEFEFEP [PFE-13, PE(FE)5P]", "✓"),
    ("PDFDFDFDFDFDP [PFD-13, PD(FD)5P]", "✓"),
]

###

Assign Resultant pH to each entry below.
Assay: Formation of hydrogels by additional peptides
Type: physicochemical
Settings: 4% weight in 100 μl NaOH solution, NaOH conc. 0.03

Indicate the recorded Resultant pH value for this substance: Ac-PDFDFDFDFDFDP-NH2 [Ac-Pro-Asp-(Phe-Asp)5-Pro-NH2] ~6

Indicate the recorded Resultant pH value for this substance: Pro-Asp-Phe-Asp (PDFD; printed: Pro-Asp-Phe-Asp) ~3

Indicate the recorded Resultant pH value for this substance: Pro-Asp-(Phe-Asp)6 (chain 1 PDFDFDFDFDFDFD; chain 2 PDFDFDFDFDFDFD) ~6

Indicate the recorded Resultant pH value for this substance: (Phe-Asp)6 (chain 1 FDFDFDFDFDFD; chain 2 FDFDFDFDFDFD) ~6

###

Experiment: Formation of hydrogels by additional peptides
Type: physicochemical
Conditions: 4% weight in 100 μl NaOH solution, NaOH conc. 0.05
observable: Resultant pH

Indicate the recorded Resultant pH value for this substance: (Phe-Asp)6 (chain 1 FDFDFDFDFDFD; chain 2 FDFDFDFDFDFD) ~7

Indicate the recorded Resultant pH value for this substance: Pro-Asp-Phe-Asp (PDFD; printed: Pro-Asp-Phe-Asp) ~4

Indicate the recorded Resultant pH value for this substance: Ac-PDFDFDFDFDFDP-NH2 [Ac-Pro-Asp-(Phe-Asp)5-Pro-NH2] >7.5

Indicate the recorded Resultant pH value for this substance: Pro-Asp-(Phe-Asp)6 (chain 1 PDFDFDFDFDFDFD; chain 2 PDFDFDFDFDFDFD) ~7

Provenance of the data: patent US9457056B2
